Value source: paper PMC5379148

assay.remarks: Plasma pharmacokinetics of rucaparib (LC-MS/MS, noncompartmental)
condition.context: human, plasma, po, 360 mg, Cmax, oral 360 mg q.d. for 14 days; geometric mean (CV%)
endpoint.label: Cmax (µg/mL)
Express it in µg/mL; write the number only.

get_value(item= CNCc1ccc(-c2[nH]c3cc(F)cc4c3c2CCNC4=O)cc1 [rucaparib] , readout=Cmax) returns 1.05

* * *

assay.remarks: clinical
condition.context: human, in vivo, po, 72 mg, t1/2
endpoint.label: half-life (h)
The response must be a number in h with no trailing unit.

response.value for CNCc1ccc(-c2[nH]c3cc(F)cc4c3c2CCNC4=O)cc1 (field: half-life) = 25.1
